Taken from the supplement of paper PMC10724198.

For each record, write down the corresponding protein stability index.
Tested on: Saccharomyces cerevisiae
protocol_summary: protein stability index of tFT-peptide fusion (C-terminal peptide) (PSI (0-1 scale)); higher = more stable (slower turnover)
test_settings: genetic background: wild type; temperature: 30 C
Output spec: single numeric token, no unit.

protein stability index reading for KKKKNKKIKINE : 0.687

Just so you know, measured protein stability index for KKRKKNIKQNTK came out at 0.617

LPAFAPLCLPTL yielded protein stability index of 0.703

Entry VSCHSPPVPHDP ; protein stability index = 0.702

Record RIEEQMIKNEWE . Reported protein stability index: 0.693

For record VPPALPRSPGPP the listed protein stability index is 0.72

response.value for LWFVGVAGFSLV (field: protein stability index) = 0.572

Sample CLGCAFPPHSLY ; protein stability index observed: 0.646

Just so you know, measured protein stability index for WVTCALVVQSRF came out at 0.693

Summary for this sequence, PSPRSGPPLASP : protein stability index is 0.69

For this sequence ( FGASYLGSLLDV ), measured protein stability index is 0.699

Measured protein stability index of TQNRCGGPSIAL : 0.634

Documented protein stability index of LPPSPPLPCPLL : 0.75

Notebook: RRREGGQGERGK , protein stability index read as 0.694

SFLCILIFPFFP yielded protein stability index of 0.469

protein stability index recorded for this sequence, PPPVPLPPPRSL , is 0.736

Record summary for KQWCFLKWGVNV : reported protein stability index = 0.558

protein stability index recorded for this sequence, GRGGVGWGEWDR , is 0.729

Query DRLGGVSQVNIQ yields protein stability index of 0.751

* * *

Tested on: Saccharomyces cerevisiae
protocol_summary: protein stability index of tFT-peptide fusion (C-terminal peptide) (PSI (0-1 scale)); higher = more stable (slower turnover)
test_settings: genetic background: wild type; temperature: 30 C
For each of the sequences below, state its protein stability index.
# output: bare number, no unit

Value sought: protein stability index, system Saccharomyces cerevisiae, item GVCGRWWTCMGV . Result: 0.722

For the sequence PPPRSPPFPSPL , the measured protein stability index on Saccharomyces cerevisiae was 0.689

Test item TPPPASALPPSP ; Saccharomyces cerevisiae; reported protein stability index was 0.705

Response field protein stability index (Saccharomyces cerevisiae) for item ITALSSPVRDKL : 0.646

Entry PALVVALLASVL ; assay system Saccharomyces cerevisiae; protein stability index recorded at 0.485

protein stability index of FFLLTCFLLPSV , assay on Saccharomyces cerevisiae, is 0.441

Per the reported Saccharomyces cerevisiae data, PPPPPPPPPPPP has protein stability index of 0.627

Bench note, Saccharomyces cerevisiae: entry PHPPCRPYPAGS , its protein stability index = 0.701

Entry EKKRRKKGEKRR , tested on Saccharomyces cerevisiae, has a reported protein stability index of 0.712

protein stability index of PVPPAPASPPTG , assay on Saccharomyces cerevisiae, is 0.742

Tested on Saccharomyces cerevisiae: CSMSGPLIIIAR . Observed protein stability index: 0.583

Considering GPGTWLFCFVRF , its protein stability index with Saccharomyces cerevisiae was recorded as 0.509

Entry RWRRGGRRAPWP , tested on Saccharomyces cerevisiae, has a reported protein stability index of 0.62

Bench note, Saccharomyces cerevisiae: RWSCLADQSANR , protein stability index reads 0.705

Measured on Saccharomyces cerevisiae, FFPLSSLIAFLP has a documented protein stability index of 0.681

Reported protein stability index (Saccharomyces cerevisiae) for entry RDMCVFSGGSGV is 0.68

Record SRRLQSPVRVVT ; system Saccharomyces cerevisiae; protein stability index = 0.773

Log: Saccharomyces cerevisiae, sequence EKKNQTAYNKTV , protein stability index = 0.39

Entry RVGSRRGVVCLL , tested on Saccharomyces cerevisiae, has a reported protein stability index of 0.753

Bench note, Saccharomyces cerevisiae: entry PPPPTPPYTPVP , its protein stability index = 0.623

Bench note, Saccharomyces cerevisiae: entry SVLLRPPLLFHP , its protein stability index = 0.722

Given the sequence ASTFADASSALV and test system Saccharomyces cerevisiae, the measured protein stability index is 0.71

Let me check: FYVTRIGPLDMS , system Saccharomyces cerevisiae, measured protein stability index is 0.801

Record AGHFRVRWGVWS has Saccharomyces cerevisiae protein stability index equal to 0.651

Assay Saccharomyces cerevisiae, sample KKKKKKKKQNQK , protein stability index read: 0.7

Record GSWGEGGVAVGG has Saccharomyces cerevisiae protein stability index equal to 0.653

Known value: Saccharomyces cerevisiae protein stability index of the sequence DVRPVWGMAGSE equals 0.742

Param item: LPPSPRLSFSPP ; param system: Saccharomyces cerevisiae; output protein stability index: 0.701

Form field, protein stability index with Saccharomyces cerevisiae, item GQMYTLATSAVV : 0.602

Value sought: protein stability index, system Saccharomyces cerevisiae, item SLASCLLRPPLY . Result: 0.693

The reported protein stability index value, Saccharomyces cerevisiae, for EVMAIISTRILG reads 0.647

Lab note: sequence PSPLPPPPLLPP tested on Saccharomyces cerevisiae; recorded protein stability index was 0.775

The measured protein stability index that WVLPFLGAWLEL showed for Saccharomyces cerevisiae is 0.606

Tested system Saccharomyces cerevisiae; protein stability index recorded for GVPRMLVGAFRG was 0.684

Assay Saccharomyces cerevisiae, sample PPPCPPPRRHPP , protein stability index read: 0.605

Here VGFDFLFRFFFL was tested on Saccharomyces cerevisiae, and its protein stability index came to 0.628

Query PLLSLGCFPFCL on Saccharomyces cerevisiae; protein stability index returned: 0.724

The value of protein stability index recorded for CQNLVCRCCLWI when tested on Saccharomyces cerevisiae reads 0.642

# GFILTVAPNLEH with Saccharomyces cerevisiae: protein stability index is 0.648

Per the reported Saccharomyces cerevisiae data, RGFKEPLSFKAG has protein stability index of 0.613

SERVCHESCLVG tested on Saccharomyces cerevisiae gave protein stability index: 0.68

* * *

System: Saccharomyces cerevisiae
protocol_summary: protein stability index of tFT-peptide fusion (C-terminal peptide) (PSI (0-1 scale)); higher = more stable (slower turnover)
test_settings: genetic background: wild type; temperature: 30 C
Reported protein stability index maps to class as: low range: < 0.6; mid range: ≥ 0.6 and < 0.7; high range: ≥ 0.7

(Q) Into which category would you place KGGFGCVGLPGG ?
(A) mid range

(Q) Class label required: KDIFQIYTLYVF
(A) low range

(Q) Please report the category associated with LVVSHMSQPISM , nothing else.
(A) mid range

(Q) Class for SRPVSSFPPPLR ?
(A) mid range

(Q) Hi, small favor: classify GLESVGRVSLRG by its protein stability index when you get a moment.
(A) mid range

(Q) Hi, small favor: classify RKICVEDIKESI by its protein stability index when you get a moment.
(A) mid range

(Q) # bin label for NRLVRLSQGGRE
(A) mid range

(Q) Which band does LFVVFVLLTFFV fall in?
(A) low range

(Q) Category lookup for the sequence NVLNLTDTKETL
(A) mid range

(Q) Given EWQWGWGGVRRD , name the class its protein stability index places it in.
(A) high range

(Q) Which protein stability index category applies to SGAGVNWGVGGG here?
(A) high range

(Q) Band of PPNTSVPSSLGR ?
(A) mid range

(Q) The entry to classify is SILTALGEVLLV ; which class holds it?
(A) mid range

(Q) Hi, small favor: classify SMASQLSQRGSD by its protein stability index when you get a moment.
(A) mid range

(Q) Which category fits this record: REGYGVGRERGD
(A) mid range

(Q) Classify this sequence: CVFAYSPVALRC
(A) low range

(Q) Please let me know in which category the item GWFWGRGGRGRG belongs.
(A) mid range

(Q) Sort RRMGLRLFLLWM into one of the categories.
(A) low range

(Q) # classify by protein stability index band: LSCCIVLLIIFV
(A) low range

(Q) State the band of RTIPSPDVRTRD
(A) high range

(Q) Which protein stability index category applies to LESLWEAIRTLF here?
(A) low range

(Q) Determine which band this sequence sits in: KKKKKRTKKNNH
(A) high range

* * *

Test system: Saccharomyces cerevisiae;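 also: PSI is a weighted mean of sequencing reads over stability bins, variants kept only with over 10 reads, mCherry proximal and sfGFP distal, peptide attached via GGGS linker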
protocol_summary: protein stability index of tFT-peptide fusion (C-terminal peptide) (PSI (0-1 scale)); higher = more stable (slower turnover)
test_settings: genetic background: wild type; temperature: 30 C
Kindly state protein stability index for each of the entries shown.
Keep it simple and answer with nothing but the number.

For this sequence ( TCNWQGASSIIG ), measured protein stability index is 0.677

Record EPRPTPLSTPRH , field protein stability index: 0.671

protein stability index reported for this sequence RTAEGRVRGRPR : 0.689

Entry GLIVGLLGVSGF ; protein stability index = 0.591

Looking up WLYPVFKISYCV , I found its protein stability index recorded as 0.381

// sample EKKEINKIKNQN , its protein stability index was 0.662

The sequence PPRSPPPTPPLF showed protein stability index equal to 0.611

The sequence identified as FRSMFLFLNLLF registered its protein stability index at 0.412

Looking up PVSRSVHIEDKR , I see its protein stability index listed as 0.727

get_value(item= SLLHGVFFWVLT , readout=protein stability index) returns 0.572

Sample PRPLLSIYLRHA ; protein stability index observed: 0.405

What the record says about RGRLCRESGSRS : protein stability index is 0.711

Field protein stability index (entry SLPPSRSPSPTL ) reads 0.665

Value of protein stability index reported for the sequence QNRKELVERPKR is 0.702

protein stability index in this record for LQDLPRLHALPN : 0.727

Lab note: TPLSSPHPSPPP gave protein stability index of 0.595

Value of measured protein stability index for the entry RVSIDIMNALGR : 0.627

Quick note, protein stability index for APPRLSPLPPPP landed at 0.685

Record APGWNNMALDVD , field protein stability index: 0.728

The reported value for SLGCLLENRRGL in terms of protein stability index is 0.641

// ERKQKKKTKEKY : protein stability index value = 0.682

# protein stability index (sequence: AWPGRLWYFWLA ) is 0.251

// field: protein stability index; key: VGVGRAALRWYG ; value = 0.672

LPPSRSLLPPRP yielded protein stability index of 0.653

protein stability index measured on NKTKKKKKKKRG = 0.659

SARFALSQAPPI has a reported protein stability index of 0.814

# sequence LLGVGYGSGGWR ; its protein stability index = 0.633

Input GSPLASSPSVID . Output protein stability index: 0.704

Form field protein stability index, entry TGYEVAGWVNWC : 0.711

Entry SGSVALWVCSVV , protein stability index reported as 0.588

Lookup result for FLASFSSFMFYL ; measured protein stability index: 0.591

# protein stability index of RCAWSEVFEGCG = 0.71

In plain terms, GGPRGPPMLIWE has a documented protein stability index of 0.738

Lookup result for LGGGAGLRCGGF ; measured protein stability index: 0.673

Given item LRFYLLTPPSPA , the value recorded as its protein stability index is 0.54

Measured protein stability index of CPLGHLCVIRFG : 0.59

The reported value for RPLAVPPRPSPV in terms of protein stability index is 0.729

Looking up PGMTILETTIMD , I see its protein stability index listed as 0.691

Sure, the documented protein stability index for VYGRRNVRLNIV is 0.582

Lab book: protein stability index of PLPPTPSLDPSS noted as 0.699

The sequence identified as QKRKKQNKDGGT registered its protein stability index at 0.716

// protein stability index value for PRYVQPQCLAQR : 0.672

So, GCFDLNPDLFQG ? Its protein stability index was 0.688

Lab note: measured protein stability index of GKIGAIRVVGWA was 0.662

Lab book: protein stability index of HLLRSDPAWFSG noted as 0.705

Quick note, protein stability index for PSPCPPRPPPSP landed at 0.753

Reported protein stability index ( VNTPGVDSDPVA ) = 0.661

Entry SRRSVVRPPCIG , protein stability index reported as 0.656

Quick note, protein stability index for YMAGPAQGRDGS landed at 0.668

Record LASSCYRHLLVV , field protein stability index: 0.137

Note to self: protein stability index recorded for WVVLVCGFVLLG was 0.318

Per the record, SVLCRIGAGCAM has protein stability index of 0.629

protein stability index for FCWVVFHSGISS is 0.713

For this sequence ( RCSKFRKFFKHR ), measured protein stability index is 0.657

Lab note: WGYGRGRVWEIS gave protein stability index of 0.614

Per the records, this sequence ( KKKKKQEREKRN ) has protein stability index equal to 0.623

Briefly, protein stability index measured for LVGWSWRGWFVV : 0.139

protein stability index in this record for NRYRKNIKKRKK : 0.617

The sequence LLFYSVPLSSSF showed protein stability index equal to 0.655

So, RGVRLGPSVVVG ? Its protein stability index was 0.696

Measured protein stability index, GCLSPSTPLWFP : 0.715

Value of protein stability index reported for the sequence GAGAAVHRAAPG is 0.672

# protein stability index (sequence: PSEAPEAPLPRP ) is 0.731

protein stability index for LLLSRLSPPPPS is 0.716

Lookup result for ARRSAGGAAVPG ; measured protein stability index: 0.624

Data point: PPPPHAHFPPPP ; protein stability index = 0.652

The measured protein stability index associated with PPPPPPRFHALH reads 0.715

protein stability index reading for SSRLVFFLPSLR : 0.697

# sequence PPCRREEQTDNH ; its protein stability index = 0.682

The reported protein stability index of the sequence SSLLSLAFFAPS was 0.715

Looking up ITSHRDSVSRWK , I see its protein stability index listed as 0.707

protein stability index for KNKRTQKKKRKK is 0.73

protein stability index in this record for LYGILSCNSGCG : 0.672

Looking up RRAPASAFPHSP , I see its protein stability index listed as 0.688

protein stability index measured on GRGRWRSVYLRG = 0.622

Reported protein stability index ( SFLISPFSLFSS ) = 0.771

Entry GGVFREEGAAER — recorded protein stability index = 0.693

get_value(item= KKERINNDLPGS , readout=protein stability index) returns 0.619

response.value for ATALETWGGAQG (field: protein stability index) = 0.691

// sample KKKKKKLKKKKI , its protein stability index was 0.724

protein stability index recorded for this sequence, ACIFDMMWFWLF , is 0.499

The measured protein stability index associated with CVGARLYMVRDR reads 0.724
